Give pKd for every item shown.
- test-system: T1, hen egg-white lysozyme (hen, UniProt P00698 19-147)
- T1 construct: also called HEL
- T1 sequence (P00698 19-147): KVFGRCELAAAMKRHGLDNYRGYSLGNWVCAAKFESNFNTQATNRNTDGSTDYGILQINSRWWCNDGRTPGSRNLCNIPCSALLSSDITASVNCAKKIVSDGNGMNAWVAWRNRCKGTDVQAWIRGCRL
- test-protocol: fluorescence titration in solution, 0.3 µM conjugate, buffer C, 25 °C
# pKd: negative log10 of molar concentration; output just the value

Param item = H4S conjugate, IANBD fluorophore coupled at position Lys39 (designed binder, Cys at position 39 (H4S numbering) coupled to IANBD ester (ANBD)) MRGSHHHHHHGSVKVKFFWNGEEKEVDTSKIVWVKRAGKSVLFIYDDNGCNGYGDVTEKDAPKELLDMLARAEREKKLN ; retrieve measured pKd.
6.90

Cool, now H4S conjugate, IANBD fluorophore coupled at position Ser29 (designed binder, Cys at position 29 (H4S numbering) coupled to IANBD ester (ANBD)) MRGSHHHHHHGSVKVKFFWNGEEKEVDTSKIVWVKRAGKCVLFIYDDNGKNGYGDVTEKDAPKELLDMLARAEREKKLN
7.48

Now consider H4S conjugate, IANBD fluorophore coupled at position Trp8 (designed binder, Cys at position 8 (H4S numbering) coupled to IANBD ester (ANBD)) MRGSHHHHHHGSVKVKFFCNGEEKEVDTSKIVWVKRAGKSVLFIYDDNGKNGYGDVTEKDAPKELLDMLARAEREKKLN and answer again.
6.72

Input H4S conjugate, IANBD fluorophore coupled at position Phe7 (designed binder, Cys at position 7 (H4S numbering) coupled to IANBD ester (ANBD)) MRGSHHHHHHGSVKVKFCWNGEEKEVDTSKIVWVKRAGKSVLFIYDDNGKNGYGDVTEKDAPKELLDMLARAEREKKLN
7.38

Same thing, different binder: H4S conjugate, IANBD fluorophore coupled at position Tyr42 (designed binder, Cys at position 42 (H4S numbering) coupled to IANBD ester (ANBD)) MRGSHHHHHHGSVKVKFFWNGEEKEVDTSKIVWVKRAGKSVLFIYDDNGKNGCGDVTEKDAPKELLDMLARAEREKKLN
5.61
